- System: AGS cells (KRAS G12D), phospho-ERK
- Protocol description: pERK In Cell Western (ICW) assay (Method B), AGS cells
- Type: cell-based
- Condition label: Homo sapiens, Table 4, pERK, 3 hours, read-out: ICW-AGS
pIC50: −log10 of the molar value.
Measurement kind: pIC50

In one line, give reported pIC50 of the entry N#Cc1c(N2CC3(CCc4sc(N)c(C#N)c43)C2)nc(OC[C@@]23CCCN2C[C@H](F)C3)nc1N1CCC[C@]2(C1)NC(=O)NC2=O [Compound 11] . 5.00 to 6.00

In one line, give reported pIC50 of the entry N#Cc1c(N2CCCC(C#N)CC2)nc(OC[C@@]23CCCN2C[C@H](F)C3)nc1N1CC2(CCc3sc(N)c(C#N)c32)C1 (stereo partly shown) [Compound 33] . 5.00 to 6.00

In one line, give reported pIC50 of the entry N#Cc1c(N2C[C@H]3CC[C@@H](C2)N3)nc(OCC2(CN3CCOCC3)CC2)nc1N1CC2(CCc3sc(N)c(C#N)c32)C1 [Compound 4] . 8.00 to 9.00

In one line, give reported pIC50 of the entry CN(C)C(=O)c1nn2c(c1Cl)CN(c1nc(OC[C@@]34CCCN3C[C@H](F)C4)nc(N3CC4(CCc5sc(N)c(C#N)c54)C3)c1F)CCC2 [Compound 9] . 6.00 to 7.00

----------
Answer each item with its documented IC50.
- Experimental target: GST-tagged KRAS-G12D (2-169) (Homo sapiens, UniProt P01116, G12D)
- Construct: GST-tagged KRAS-G12D (2-169, Reaction Biology, MSC-11-539); purchased Reaction Biology MSC-11-539 (KRAS G12D); MSC-11-502 (SOS1cat)
- Sequence (P01116 2-169 isoform P01116-2 G12D): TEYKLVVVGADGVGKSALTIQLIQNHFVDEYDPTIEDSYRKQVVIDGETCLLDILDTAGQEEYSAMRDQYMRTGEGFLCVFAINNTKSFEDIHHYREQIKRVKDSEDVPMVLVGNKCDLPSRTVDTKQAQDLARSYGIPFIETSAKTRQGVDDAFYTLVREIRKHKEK
- Protocol description: Nucleotide exchange assay (NEA), SOS-mediated, HTRF, KRAS G12D
- Format: biochemical
- Condition label: Table 4; IC50 extracted at 30 min

In one line, give reported IC50 of the entry N#Cc1c(N2C[C@H]3CC[C@@H](C2)N3)nc(OCc2n[nH]cc2Br)nc1N1CC2(CCc3sc(N)c(C#N)c32)C1 [Compound 102] . < 10 nM

In one line, give reported IC50 of the entry N#Cc1c(N2C[C@H]3CC[C@@H](C2)N3)nc(OCC2(CN3CCSCC3)CC2)nc1N1CC2(CCc3sc(N)c(C#N)c32)C1 [Compound 72] . < 10 nM

In one line, give reported IC50 of the entry N#Cc1cnc(OCC2(CN3CCOCC3)CC2)nc1N1CC2(CCc3sc(N)c(C#N)c32)C1 [Compound 66] . 100 to 1000 nM

In one line, give reported IC50 of the entry C=C1CN2CCCC2(COc2nc(N3CCCn4nc(C(=O)N(C)C)c(Cl)c4C3)c(C#N)c(N3CC4(CCc5sc(N)c(C#N)c54)C3)n2)C1 (stereo not shown) [Compound 93] . < 10 nM

In one line, give reported IC50 of the entry N#Cc1c(N2C[C@H]3CC[C@@H](C2)N3)nc(OCC2(CN3CCOCC3)CC2)nc1N1CC2(C1)SCc1sc(N)c(C#N)c12 [Compound 100] . < 10 nM

In one line, give reported IC50 of the entry N#Cc1c(N2C[C@H]3CC[C@@H](C2)N3)nc(OCc2n[nH]cc2Cl)nc1N1CC2(CCc3sc(N)c(C#N)c32)C1 [Compound 104] . < 10 nM

In one line, give reported IC50 of the entry N#Cc1c(N2CCCC(C#N)CC2)nc(OC[C@@]23CCCN2C[C@H](F)C3)nc1N1CC2(CCc3sc(N)c(C#N)c32)C1 (stereo partly shown) [Compound 33] . 10 to 100 nM

In one line, give reported IC50 of the entry Cc1nc(-c2nn3c(c2Cl)CN(c2nc(OC[C@@]45CCCN4C[C@H](F)C5)nc(N4CC5(CCc6sc(N)c(C#N)c65)C4)c2C#N)CCC3)n(C)n1 [Compound 85] . < 10 nM

In one line, give reported IC50 of the entry C=C1CN2CCCC2(COc2nc(N3C[C@H]4CC[C@@H](C3)N4)c(C#N)c(N3CC4(CCc5sc(N)c(C#N)c54)C3)n2)C1 (stereo partly shown) [Compound 94] . < 10 nM

In one line, give reported IC50 of the entry CN(C)C(=O)c1nn2c(c1Cl)CN(c1nc(OC[C@@]34CCCN3C[C@H](F)C4)nc(N3CC4(CCCCc5sc(N)c(C#N)c54)C3)c1C#N)CCC2 [Compound 10] . < 10 nM

In one line, give reported IC50 of the entry N#Cc1cnc(OC[C@@]23CCCN2C[C@H](F)C3)nc1N1CC2(CCc3sc(N)c(C#N)c32)C1 [Compound 65] . 1000 to 20000 nM

In one line, give reported IC50 of the entry N#Cc1c(N2C[C@H]3CC[C@@H](C2)N3)nc(OCC2(CN3CCOCC3)CC2)nc1N1CC2(CCc3sc(N)c(C#N)c32)C1 [Compound 4] . < 10 nM

In one line, give reported IC50 of the entry N#Cc1c(N2C[C@H]3CC[C@@H](C2)N3)nc(OCC2(c3ccccc3)CC2)nc1N1CC2(CCc3sc(N)c(C#N)c32)C1 [Compound 84] . < 10 nM

----------
- Experimental target: KRAS G12D/RAF1 (Homo sapiens, UniProt P01116, G12D)
- Construct: His6-MBP (N, cleaved yes); made in house; host or cells: E. coli
- Sequence (P01116 with tags, fused parts or gaps isoform P01116-2 G12D): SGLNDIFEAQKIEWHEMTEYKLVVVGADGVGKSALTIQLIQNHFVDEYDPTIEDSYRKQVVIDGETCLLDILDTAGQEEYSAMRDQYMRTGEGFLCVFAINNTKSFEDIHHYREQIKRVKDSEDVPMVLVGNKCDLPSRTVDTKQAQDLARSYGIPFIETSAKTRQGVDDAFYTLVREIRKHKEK
- Protocol description: Protein-protein interaction (PPI) HTRF assay KRAS G12D/RAF1
- Type: binding
- Condition label: Table 4
pIC50: −log10 of the molar value.
Measurement kind: pIC50

In one line, give reported pIC50 of the entry Oc1ccc2c(c1)-c1ccccc1C21CN(c2cc(N3C[C@H]4CC[C@@H](C3)N4)nc(OC[C@@]34CCCN3C[C@H](F)C4)n2)C1 . 4.00 to 5.00

In one line, give reported pIC50 of the entry Cc1noc(-c2nn3c(c2Cl)CN(c2nc(OC[C@@]45CCCN4C[C@H](F)C5)nc(N4CC5(CCc6sc(N)c(C#N)c65)C4)c2C#N)CCC3)n1 . 5.00 to 6.00

In one line, give reported pIC50 of the entry CO/N=C(\C)c1nn2c(c1Cl)CN(c1nc(OC[C@@]34CCCN3C[C@H](F)C4)nc(N3CC4(CCc5sc(N)c(C#N)c54)C3)c1C#N)CCC2 . 5.00 to 6.00

In one line, give reported pIC50 of the entry CC1CC2(CN(c3nc(OCC4(CN5CCOCC5)CC4)nc(N4C[C@H]5CC[C@@H](C4)N5)c3C#N)C2)c2c1sc(N)c2C#N (some centres unmarked) . 6.00 to 7.00

In one line, give reported pIC50 of the entry N#Cc1c(N2CCC=CCC2)nc(OC[C@@]23CCCN2C[C@H](F)C3)nc1N1CC2(CCc3sc(N)c(C#N)c32)C1 . 5.00 to 6.00

In one line, give reported pIC50 of the entry N#Cc1cnc(OCC2(CN3CCOCC3)CC2)nc1N1CC2(CCCc3sc(N)c(C#N)c32)C1 . 4.00 to 5.00

In one line, give reported pIC50 of the entry C[C@H](Oc1nc(N2C[C@H]3CC[C@@H](C2)N3)c(C#N)c(N2CC3(CCc4sc(N)c(C#N)c43)C2)n1)[C@@H]1CCCN1C . 4.00 to 5.00

In one line, give reported pIC50 of the entry N#Cc1c(N2C[C@H]3CC[C@@H](C2)N3)nc(OCC2(CN3CCOCC3)CC2)nc1N1CC2(C=CCc3sc(N)c(C#N)c32)C1 . > 7.00

----------
Answer each item with its documented pIC50.
- System: AGS cells (KRAS G12D), phospho-ERK
- Protocol description: pERK In Cell Western (ICW) assay (Method B), AGS cells
- Assay type: cell-based
- Condition label: Homo sapiens, Table 4, pERK, 3 hours, read-out: ICW-AGS
pIC50: −log10 of the molar value.

In one line, give reported pIC50 of the entry CC1CC2(CN(c3nc(OCC4(CN5CCOCC5)CC4)nc(N4C[C@H]5CC[C@@H](C4)N5)c3C#N)C2)c2c1sc(N)c2C#N (stereo partly drawn) . 7.00 to 8.00

In one line, give reported pIC50 of the entry N#Cc1cc2n(n1)CCCN(c1nc(OC[C@@]34CCCN3C[C@H](F)C4)nc(N3CC4(CCc5sc(N)c(C#N)c54)C3)c1C#N)C2 . 6.00 to 7.00

In one line, give reported pIC50 of the entry CN(C)C(=O)c1nn2c(c1Cl)CN(c1nc(OC[C@@]34CCCN3C[C@H](F)C4)nc(N3CC4(CCc5sc(N)c(C#N)c54)C3)c1C#N)CC(F)(F)C2 . 7.00 to 8.00

----------
- Experimental target: KRAS G12D/RAF1 (Homo sapiens, UniProt P01116, G12D)
- Construct: His6-MBP (N, cleaved yes); made in house; host or cells: E. coli
- Protocol description: Protein-protein interaction (PPI) HTRF assay KRAS G12D/RAF1
- Format: binding
- Condition label: Table 4, listed as 74.2
Measurement kind: IC50

In one line, give reported IC50 of the entry CN(C)CC1(COc2nc(N3CC4CCC(C3)N4)c(C#N)c(N3CC4(CCc5sc(N)c(C#N)c54)C3)n2)CC1(F)F (stereo not shown) [Compound 74B] . 10 to 100 µM
